Field: Monocyte MFI. Provide a value for each of the binders that follow.
- subject of test: T1, human CD33 (human, UniProt P20138 18-364)
- T1 construct: CD33 on human primary dendritic cells, macrophages, monocytes and T cells and on CHO cells expressing recombinant human CD33; also called Siglec-3; hCD33
- experimental details: flow cytometry, human primary monocytes;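 note: binding of anti-CD33 antibodies at 10 ug/ml to human primary monocytes, 1 h on ice, detected by PE-labelled secondary antibody, flow cytometry readout as mean fluorescence intensity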
- Set-up: reference not given here
I only need the number, thanks.

Requested read-out: Monocyte MFI. Entry: C-16 (antibody, V domains shown, human IgG1) VH: EVQLVESGGGLVQPGGSLRLSCAASGFTFSSYWMSWVRQAPGKGLEWVANINQDGSEKYYVDSVKGRFTISRDNAKNSLYLQMNSLRAEDTAVYYCAREGSDRHPFDYWGQGTLVTVSS VL: DIQMTQSPSSLSASVGDRVTITCRASQSISSYLNWYQQKPGKAPKLLIYAASSLQSGVPSRFSGSGSGTDFTLTISSLQPEDFATYYCQQAYLVPLTFGGGTKVEIK
133

Which measured Monocyte MFI value corresponds to C-36 (antibody, V domains shown, human IgG1) VH: EVQLVESGGGLVQPGGSLRLSCAASGFTFSSYWMSWVRQAPGKGLEWVANIKQDGSEKYYVDSVKGRFTISRDNAKNSLYLQMNSLRAEDTAVYYCARDGQYYPAYGMDVWGQGTTVTVSS VL: EIVMTQSPATLSVSPGERATLSCRASQSVSSNLAWYQQKPGQAPRLLIYGASTRATGIPARFSGSGSGTEFTLTISSLQSEDFAVYYCQQYFDLPTFGGGTKVEIK ?
144

Bench note: what Monocyte MFI did C-10 (antibody, V domains shown, human IgG1) VH: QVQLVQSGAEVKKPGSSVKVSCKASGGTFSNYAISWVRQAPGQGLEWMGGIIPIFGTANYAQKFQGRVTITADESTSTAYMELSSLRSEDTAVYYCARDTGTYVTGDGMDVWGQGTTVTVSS VL: EIVMTQSPATLSVSPGERATLSCRASQSVSSNLAWYQQKPGQAPRLLIYGASTRATGIPARFSGSGSGTEFTLTISSLQSEDFAVYYCQQYVNLPITFGGGTKVEIK show?
107

# input binder: C-73 (antibody, V domains shown, human IgG1) VH: QVQLVESGGGVVQPGRSLRLSCAASGFTFSSYGMHWVRQAPGKGLEWVAVIWYDGSNKYYADSVKGRFTISRDNSKNTLYLQMNSLRAEDTAVYYCARGTNAYGTPRDFDLWGRGTLVTVSS VL: DIQMTQSPSSLSASVGDRVTITCRASQSISSYLNWYQQKPGKAPKLLIYAASSLQSGVPSRFSGSGSGTDFTLTISSLQPEDFATYYCQQLSDTPITFGGGTKVEIK ; wanted: its Monocyte MFI
94

// Monocyte MFI lookup, key: C-56 (antibody, V domains shown, human IgG1) VH: EVQLVESGGGLVQPGGSLRLSCAASGFTFSSYWMSWVRQAPGKGLEWVANIKQDGSEKYYVDSVKGRFTISRDNAKNSLYLQMNSLRAEDTAVYYCARDYGSVAGTPFDYWGQGTLVTVSS VL: DIQMTQSPSSLSASVGDRVTITCRASQSISSYLNWYQQKPGKAPKLLIYAASSLQSGVPSRFSGSGSGTDFTLTISSLQPEDFATYYCQQVLHTPLTFGGGTKVEIK
136

Item under review: C-87 (antibody, V domains shown, human IgG1) VH: QLQLQESGPGLVKPSETLSLTCTVSGGSISSSSYAWGWIRQPPGKGLEWIGSIYYSGSTYYNPSLKSRVTISVDTSKNQFSLKLSSVTAADTAVYYCARDPLYPLTPYGMDVWGQGTTVTVSS VL: EIVMTQSPATLSLSPGERATLSCRASQSVSSYLAWYQQKPGQAPRLLIYDASNRATGIPARFSGSGSGTDFTLTISSLEPEDFAVYYCQQLSVFPPTFGGGTKVEIK . Reported Monocyte MFI?
971

// Monocyte MFI lookup, key: C-27 (antibody, V domains shown, human IgG1) VH: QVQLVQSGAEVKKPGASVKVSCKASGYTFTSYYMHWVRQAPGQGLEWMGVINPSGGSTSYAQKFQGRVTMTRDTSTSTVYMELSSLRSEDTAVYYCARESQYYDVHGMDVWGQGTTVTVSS VL: DIQMTQSPSSLSASVGDRVTITCRASQSISSYLNWYQQKPGKAPKLLIYAASSLQSGVPSRFSGSGSGTDFTLTISSLQPEDFATYYCQQHYDIPLTFGGGTKVEIK
113

What Monocyte MFI value was documented for this binder, C-24 (antibody, V domains shown, human IgG1) VH: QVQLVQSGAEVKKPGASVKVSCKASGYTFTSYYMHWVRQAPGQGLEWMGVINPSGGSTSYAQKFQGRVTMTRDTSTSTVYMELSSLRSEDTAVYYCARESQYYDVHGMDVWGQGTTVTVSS VL: DIQMTQSPSSLSASVGDRVTITCRASQSISSYLNWYQQKPGKAPKLLIYAASSLQSGVPSRFSGSGSGTDFTLTISSLQPEDFATYYCQQSVTPPLTFGGGTKVEIK ?
165

// lookup Monocyte MFI for C-23 (antibody, V domains shown, human IgG1) VH: QVQLQESGPGLVKPSETLSLTCAVSGYSISSGYYWGWIRQPPGKGLEWIGTIYHSGSTYYNPSLKSRVTISVDTSKNQFSLKLSSVTAADTAVYYCAREVGVVGALPYFDYWGQGTLVTVSS VL: DIQMTQSPSSLSASVGDRVTITCRASQSISSYLNWYQQKPGKAPKLLIYGASSLQSGVPSRFSGSGSGTDFTLTISSLQPEDFATYYCQQASSSPPTFGGGTKVEIK
128

// returns reported Monocyte MFI for input C-44 (antibody, V domains shown, human IgG1) VH: QLQLQESGPGLVKPSETLSLTCTVSGGSISSSSYAWGWIRQPPGKGLEWIGSIYYSGSTYYNPSLKSRVTISVDTSKNQFSLKLSSVTAADTAVYYCAREGYVAAYGMDVWGQGTTVTVSS VL: DIQMTQSPSSLSASVGDRVTITCRASQSISSYLNWYQQKPGKAPKLLIYAASSLQSGVPSRFSGSGSGTDFTLTISSLQPEDFATYYCQQAYYPPWTFGGGTKVEIK
161
